FYI, the data here is from patent US9663515B2.

SUBJECT_OF_TEST: full-length RORγt in Jurkat cells (Homo sapiens (Human), UniProt P51449)
Sequence (P51449 other isoform, or with tags, fused parts or gaps): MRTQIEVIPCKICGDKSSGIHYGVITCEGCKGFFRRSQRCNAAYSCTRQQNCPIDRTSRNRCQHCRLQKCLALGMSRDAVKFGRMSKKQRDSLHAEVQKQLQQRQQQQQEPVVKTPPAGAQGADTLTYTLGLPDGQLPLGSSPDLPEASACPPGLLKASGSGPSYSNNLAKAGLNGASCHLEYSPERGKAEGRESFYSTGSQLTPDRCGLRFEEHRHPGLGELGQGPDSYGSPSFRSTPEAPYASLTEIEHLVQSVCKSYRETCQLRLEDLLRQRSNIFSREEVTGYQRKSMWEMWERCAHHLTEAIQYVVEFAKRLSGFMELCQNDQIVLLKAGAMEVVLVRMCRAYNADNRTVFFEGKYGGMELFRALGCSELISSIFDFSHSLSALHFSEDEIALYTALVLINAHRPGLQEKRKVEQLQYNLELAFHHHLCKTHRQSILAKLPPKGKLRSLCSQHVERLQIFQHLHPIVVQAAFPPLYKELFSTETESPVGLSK
ASSAY_METHOD_TEXT: RORγt 5×RORE Assay in Jurkat Cells (Assay 2)
Type: cell-based
EXPERIMENTAL_CONTEXT: 5×RORE Nanoluc luciferase reporter, read-out: RORγt5X IC50 Range (nM) (Assay 2)
Each entry below lists one item and its recorded IC50 value.

Consider the worked cases shown below.
molecule=CCS(=O)(=O)c1ccc([C@H](COC)NC(=O)c2cnc3c(c2)CN(C[C@H]2CC[C@@H](C(F)(F)F)CC2)[C@H]3C(C)C)cc1 readout_type=IC50 recorded_value="> 1000 nM"
molecule=CC[C@H]1c2ncc(C(=O)N[C@@H](COC)c3ccc(S(=O)(=O)CC)cc3)cc2CN1C[C@H]1CC[C@H](C(F)(F)F)CC1 readout_type=IC50 recorded_value="< 100 nM"
molecule="CC[C@H]1c2ncc(C(=O)N[C@@H](COC)c3ccc(S(=O)(=O)CC)cc3)cc2CN1C[C@H]1CC[C@@H](C(F)(F)F)OC1 (single isomer, unassigned)" readout_type=IC50 recorded_value="> 1000 nM"
molecule=CCS(=O)(=O)c1ccc([C@H](COC(N)=O)NC(=O)c2cnc3c(c2)CN(C[C@H]2CC[C@H](C(F)(F)F)CC2)[C@H]3C(C)C)nc1 readout_type=IC50 recorded_value="< 100 nM"
molecule=CC[C@H]1c2ncc(C(=O)N[C@@H](COC(N)=O)c3ccc(S(=O)(=O)CC)cc3)cc2CN1C[C@H]1CC[C@H](C(F)(F)F)CC1 readout_type=IC50 recorded_value="< 100 nM"
molecule="CC[C@H]1c2ncc(C(=O)N[C@@H](COC)c3ccc(S(=O)(=O)CC)cc3)cc2CN1C[C@H]1CC[C@H](C(F)(F)F)OC1 (single isomer, unassigned)" readout_type=IC50 recorded_value="< 100 nM"
molecule=CCS(=O)(=O)c1ccc([C@H](COCC(=O)O)NC(=O)c2cnc3c(c2)CN(C[C@H]2CC[C@H](C(F)(F)F)CC2)[C@H]3C(C)C)cc1 readout_type=IC50 recorded_value="100 to 1000 nM"
molecule=CCS(=O)(=O)c1ccc([C@H](COC(N)=O)NC(=O)c2cnc3c(c2)CN(C[C@H]2CC[C@@H](C(F)(F)F)CC2)[C@H]3C(C)C)cc1 readout_type=IC50 recorded_value="> 1000 nM"
molecule="CC[C@H]1c2ncc(C(=O)N[C@@H](COC)c3ccc(S(=O)(=O)CC)cc3)cc2CN1C[C@@H]1CC[C@H](C(F)(F)F)OC1 (single isomer, unassigned)" readout_type=IC50 recorded_value="> 1000 nM"
molecule=CCS(=O)(=O)c1ccc([C@@H](COC(N)=O)NC(=O)c2cnc3c(c2)CN(C[C@H]2CC[C@@H](C(F)(F)F)CC2)[C@H]3C(C)C)nc1 readout_type=IC50 recorded_value="> 1000 nM"

Q: For full-length RORγt in Jurkat cells (Homo sapiens (Human), UniProt P51449), give the measured IC50 of the entry CCS(=O)(=O)c1ccc([C@@H](COC(N)=O)NC(=O)c2cnc3c(c2)CN(C[C@H]2CC[C@H](C(F)(F)F)CC2)[C@H]3C(C)C)cc1
A: < 100 nM

Q: Send back full-length RORγt in Jurkat cells (Homo sapiens (Human), UniProt P51449) IC50 of CCS(=O)(=O)c1ccc([C@H](COC)NC(=O)c2cnc3c(c2)CN(C[C@H]2CC[C@H](C(F)(F)F)CC2)[C@H]3C(C)C)cc1 only.
A: < 100 nM

Q: Look up and report measured IC50 (full-length RORγt in Jurkat cells (Homo sapiens (Human), UniProt P51449)) for the following molecule: CC[C@H]1c2ncc(C(=O)N[C@@H](COC)c3ccc(S(=O)(=O)CC)cc3)cc2CN1C[C@@H]1CC[C@@H](C(F)(F)F)OC1 (single isomer, unassigned)
A: < 100 nM

---

SUBJECT_OF_TEST: hERG potassium ion channel (Homo sapiens (Human))
Sequence (Q12809 whole entry): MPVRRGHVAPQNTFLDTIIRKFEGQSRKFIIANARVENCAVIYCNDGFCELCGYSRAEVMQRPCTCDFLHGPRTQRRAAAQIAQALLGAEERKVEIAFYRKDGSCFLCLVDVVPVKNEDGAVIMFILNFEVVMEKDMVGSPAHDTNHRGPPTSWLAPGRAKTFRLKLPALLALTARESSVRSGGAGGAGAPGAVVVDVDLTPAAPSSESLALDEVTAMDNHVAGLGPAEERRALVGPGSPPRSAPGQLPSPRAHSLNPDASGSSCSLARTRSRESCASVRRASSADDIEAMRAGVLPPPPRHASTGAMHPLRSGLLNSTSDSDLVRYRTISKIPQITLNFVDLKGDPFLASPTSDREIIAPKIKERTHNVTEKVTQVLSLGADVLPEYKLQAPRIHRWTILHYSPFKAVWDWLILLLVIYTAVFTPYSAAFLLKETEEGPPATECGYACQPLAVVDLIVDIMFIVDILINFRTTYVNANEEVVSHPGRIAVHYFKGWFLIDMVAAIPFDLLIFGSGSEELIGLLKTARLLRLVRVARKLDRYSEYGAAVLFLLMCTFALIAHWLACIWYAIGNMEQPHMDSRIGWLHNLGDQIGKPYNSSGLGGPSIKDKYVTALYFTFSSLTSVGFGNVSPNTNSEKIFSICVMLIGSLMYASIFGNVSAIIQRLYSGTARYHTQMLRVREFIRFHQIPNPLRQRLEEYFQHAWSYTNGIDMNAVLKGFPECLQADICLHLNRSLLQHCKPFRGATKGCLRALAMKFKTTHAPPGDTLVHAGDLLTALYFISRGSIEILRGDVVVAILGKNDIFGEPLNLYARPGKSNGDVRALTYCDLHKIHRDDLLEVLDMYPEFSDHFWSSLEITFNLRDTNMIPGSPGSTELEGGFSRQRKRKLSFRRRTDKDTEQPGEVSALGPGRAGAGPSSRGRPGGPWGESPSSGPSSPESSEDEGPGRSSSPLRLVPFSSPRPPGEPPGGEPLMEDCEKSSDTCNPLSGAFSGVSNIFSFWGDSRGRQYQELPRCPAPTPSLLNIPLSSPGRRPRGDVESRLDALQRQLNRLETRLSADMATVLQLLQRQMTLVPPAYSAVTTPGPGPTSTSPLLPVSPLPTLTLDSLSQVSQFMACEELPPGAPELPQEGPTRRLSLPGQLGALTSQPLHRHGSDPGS
ASSAY_METHOD_TEXT: hERG Assay (Assay 4)
Format: cell-based
EXPERIMENTAL_CONTEXT: HEK293 cells stably transfected with hERG cDNA, pH 7.4, compound at 3 μM, patch clamp, HEK 293 cells transfected with hERG
READOUT_TYPE: inhibition at 3 µM (%)
Field: numeric (%). Do not append units.

Example results:
compound="CCS(=O)(=O)c1ccc([C@H](COC)NC(=O)c2cnc3c(c2)CN(C[C@H]2CC[C@H](C(F)(F)F)CC2)[C@H]3C(C)C)cc1 [Compound 15]" recorded_value=50
compound="CC[C@H]1c2ncc(C(=O)N[C@@H](COC)c3ccc(S(=O)(=O)CC)cc3)cc2CN1C[C@H]1CC[C@H](C(F)(F)F)CC1 [Compound 1]" recorded_value=24.3
compound="CC[C@H]1c2ncc(C(=O)N[C@@H](COC)c3ccc(S(=O)(=O)CC)cc3)cc2CN1C[C@H]1CC[C@H](C(F)(F)F)OC1 (single isomer, unassigned) [Compound 3]" recorded_value=24.3
compound="CCS(=O)(=O)c1ccc([C@@H](COC(N)=O)NC(=O)c2cnc3c(c2)CN(C[C@H]2CC[C@H](C(F)(F)F)CC2)[C@H]3C(C)C)cc1 [Compound 12]" recorded_value=38.8
compound="CC[C@H]1c2ncc(C(=O)N[C@@H](COC(N)=O)c3ccc(S(=O)(=O)CC)cc3)cc2CN1C[C@H]1CC[C@H](C(F)(F)F)CC1 [Compound 2]" recorded_value=38.8

Q: Recall the reported inhibition at 3 µM of CCS(=O)(=O)c1ccc(CNC(=O)c2cnc3c(c2)CN(C[C@H]2CC[C@H](C(F)(F)F)CC2)[C@H]3C(C)C)nc1 on hERG potassium ion channel (Homo sapiens (Human)) and write it down.
A: 45.4

Q: Output reported inhibition at 3 µM of the compound CCS(=O)(=O)c1ccc(CNC(=O)c2cnc3c(c2)CN(C[C@H]2CC[C@H](C(F)(F)F)CC2)[C@H]3C(C)C)cc1 on hERG potassium ion channel (Homo sapiens (Human)).
A: 57

---

SUBJECT_OF_TEST: recombinant RORγ Ligand Binding Domain (LBD) protein (Homo sapiens (Human))
Sequence (P51449 269-508): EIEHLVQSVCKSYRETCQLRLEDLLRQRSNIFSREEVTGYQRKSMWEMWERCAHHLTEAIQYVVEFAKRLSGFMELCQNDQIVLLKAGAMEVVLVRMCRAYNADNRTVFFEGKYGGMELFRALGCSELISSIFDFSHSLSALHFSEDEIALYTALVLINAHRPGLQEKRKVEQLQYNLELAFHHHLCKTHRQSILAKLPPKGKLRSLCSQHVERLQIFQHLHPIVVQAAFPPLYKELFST
ASSAY_METHOD_TEXT: Radio-Ligand RORγ Binding Assay (Assay 1)
EXPERIMENTAL_CONTEXT: competition with 25-hydroxy [26,27-3H]-cholesterol, SPA; read-out: RORγ Binding Ki Range (nM) (Assay 1)
Entries and their Ki values follow.

smiles_record=CCS(=O)(=O)c1ccc([C@@H](COC(N)=O)NC(=O)c2cnc3c(c2)CN(C[C@H]2CC[C@H](C(F)(F)F)CC2)[C@H]3C(C)C)cc1 recorded_value="< 100 nM"
smiles_record=CCS(=O)(=O)c1ccc([C@H](COC(N)=O)NC(=O)c2cnc3c(c2)CN(C[C@H]2CC[C@H](C(F)(F)F)CC2)[C@H]3C(C)C)nc1 recorded_value="< 100 nM"

Next:
Q: Output Ki of CCS(=O)(=O)c1ccc([C@H](COC)NC(=O)c2cnc3c(c2)CN(C[C@H]2CC[C@@H](C(F)(F)F)CC2)[C@H]3C(C)C)cc1
A: < 100 nM
